Record set: pKi | 5-hydroxytryptamine receptor 2A (Homo sapiens, UniProt P28223) | literature, multiple sources.
// field semantics: pKi = negative decimal log of concentration (mol/L)

Example compounds with recorded pKi:
compound	pKi
CCOC(=O)c1cccc(NC2=NC(N)=NC3(CCCCC3)N2)c1	6.76
CC(=O)c1c(C)cc2oc(=O)cc(C)c2c1OCCCN1CCN(c2ccccc2C#N)CC1	7.19

Q: Give pKi for this entry on 5-hydroxytryptamine receptor 2A (Homo sapiens, UniProt P28223): O=C1Nc2ccc(F)cc2C1CCCCN1CCN(c2ccccc2)CC1 (stereo unspecified)
Ans: 7.26

Q: Give pKi for this entry on 5-hydroxytryptamine receptor 2A (Homo sapiens, UniProt P28223): O=C(NCCC(F)CN1CCN(c2cccc(Cl)c2Cl)CC1)c1ccc(-c2ccccn2)cc1 (stereo unspecified)
Ans: 7.01

Q: Give pKi for this entry on 5-hydroxytryptamine receptor 2A (Homo sapiens, UniProt P28223): CNc1ncc2c(n1)CC(CN1CCC(c3noc4cc(F)ccc34)CC1)CC2=O (stereo unspecified)
Ans: 8.62

Q: Give pKi for this entry on 5-hydroxytryptamine receptor 2A (Homo sapiens, UniProt P28223): Cc1ccc(-c2noc3c2CCNCC3)cc1
Ans: 6.86

Q: Give pKi for this entry on 5-hydroxytryptamine receptor 2A (Homo sapiens, UniProt P28223): Cc1cc2c(cc1Br)N(C(=O)Nc1ccc(Oc3cccnc3C)nc1)CC2
Ans: 6.80

Q: Give pKi for this entry on 5-hydroxytryptamine receptor 2A (Homo sapiens, UniProt P28223): Fc1ccc(N2CCN(CCC3OCCc4ccccc43)CC2)cc1 (stereo unspecified)
Ans: 8.24

Q: Give pKi for this entry on 5-hydroxytryptamine receptor 2A (Homo sapiens, UniProt P28223): COc1ccc(N2Cc3cc(Cl)cc(Cl)c3C2=O)cc1OCCN1CCC(C)(C)CC1
Ans: 6.40
